# Assayed System: glucocorticoid receptor (Homo sapiens)
# Construct: endogenous in cells
# Sequence (P04150 1-777): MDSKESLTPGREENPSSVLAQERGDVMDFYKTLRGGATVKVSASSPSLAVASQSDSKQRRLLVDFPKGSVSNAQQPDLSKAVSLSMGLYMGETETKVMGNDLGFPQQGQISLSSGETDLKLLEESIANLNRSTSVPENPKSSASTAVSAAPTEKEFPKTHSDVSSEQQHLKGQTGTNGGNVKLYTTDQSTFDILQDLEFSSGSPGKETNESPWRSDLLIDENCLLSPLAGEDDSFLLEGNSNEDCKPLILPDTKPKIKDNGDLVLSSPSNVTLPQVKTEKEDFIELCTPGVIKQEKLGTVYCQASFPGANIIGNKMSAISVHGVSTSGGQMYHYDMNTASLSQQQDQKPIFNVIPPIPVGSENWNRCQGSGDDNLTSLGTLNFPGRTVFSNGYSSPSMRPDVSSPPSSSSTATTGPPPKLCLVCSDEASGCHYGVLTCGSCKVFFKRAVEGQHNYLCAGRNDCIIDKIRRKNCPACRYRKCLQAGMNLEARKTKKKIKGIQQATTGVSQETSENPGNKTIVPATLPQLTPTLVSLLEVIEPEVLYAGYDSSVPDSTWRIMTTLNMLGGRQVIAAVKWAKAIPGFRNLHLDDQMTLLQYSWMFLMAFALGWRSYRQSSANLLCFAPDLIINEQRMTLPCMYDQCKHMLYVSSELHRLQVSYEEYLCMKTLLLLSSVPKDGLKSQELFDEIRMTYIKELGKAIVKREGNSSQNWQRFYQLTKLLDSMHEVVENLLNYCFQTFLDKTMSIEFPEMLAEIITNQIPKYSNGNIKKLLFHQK
# Assay Comment: Ligand binding assay (GRBind), 3H-dexamethasone displacement in HeLa cell lysate
# Condition Info: 3H-DEX tracer
Readout: pKi
The meaning of pKi here: minus log10 of the concentration in molar units.

Recorded pKi, per entry:
NC(=O)CNC(=O)c1cccnc1CC[C@]1(O)CCC2=Cc3c(cnn3-c3ccc(F)cc3)C[C@@]21C1CC1 [Example 43] : 8.26
CC[C@]12Cc3cnn(-c4ccc(F)cc4)c3C=C1CC[C@@]2(O)CCc1ccccc1S(C)(=O)=O [Example 42] : 8.71
CC[C@]12Cc3cnn(-c4ccccc4)c3C=C1CC[C@@]2(O)CCc1ccccc1C(N)=O [Example 20] : 8.60

Fill in: pKi on glucocorticoid receptor (Homo sapiens), entry NC(=O)Cc1ccccc1CC[C@]1(O)CCC2=Cc3c(cnn3-c3ccc(F)cc3)C[C@@]21C1CC1 [Example 56] 8.79

Fill in: pKi on glucocorticoid receptor (Homo sapiens), entry CC[C@]12Cc3cnn(-c4ccc(F)cc4)c3C=C1CC[C@@]2(O)CCc1ncc(F)cc1C(N)=O [Example 53] 8.22

Fill in: pKi on glucocorticoid receptor (Homo sapiens), entry CC[C@]12Cc3cnn(-c4ccc(F)cc4)c3C=C1CC[C@@]2(O)CC(O)c1cc(C#N)ccn1 (stereo partly drawn) [Example 72] 8.20
